# measuredOn: human CCR8 (human, UniProt P51685 1-355)
# assayRemarks: cell-based or functional assay
Classify as follows. Reported hCCL1 (100 nM) residual response in %, Protocol #2, mAb 0.08 µg/mL (0.53 nM) greater than or equal to 80%: Condition met. Reported hCCL1 (100 nM) residual response in %, Protocol #2, mAb 0.08 µg/mL (0.53 nM) below: Condition not met.

>  <binder>
anti-CCR8 mAb 2-2 (antibody, V domains shown) VH: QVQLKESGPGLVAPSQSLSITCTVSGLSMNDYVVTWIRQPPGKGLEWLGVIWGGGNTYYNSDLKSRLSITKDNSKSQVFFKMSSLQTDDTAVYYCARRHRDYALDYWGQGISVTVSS VL: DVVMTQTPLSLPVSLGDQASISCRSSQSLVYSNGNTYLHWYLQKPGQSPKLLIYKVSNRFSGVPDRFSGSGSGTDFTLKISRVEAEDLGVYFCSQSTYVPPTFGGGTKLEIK

>  <assignedClass>
Condition met

$$$$
>  <binder>
anti-CCR8 mAb 2-9 (antibody, V domains shown) VH: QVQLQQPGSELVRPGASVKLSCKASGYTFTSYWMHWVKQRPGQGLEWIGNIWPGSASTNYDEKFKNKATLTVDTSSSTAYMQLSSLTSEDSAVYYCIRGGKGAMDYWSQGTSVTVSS VL: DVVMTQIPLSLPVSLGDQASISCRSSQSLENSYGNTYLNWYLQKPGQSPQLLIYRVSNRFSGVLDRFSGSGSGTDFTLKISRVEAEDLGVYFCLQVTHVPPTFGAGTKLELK

>  <assignedClass>
Condition met

$$$$
>  <binder>
anti-CCR8 mAb 2-10 (antibody, V domains shown) VH: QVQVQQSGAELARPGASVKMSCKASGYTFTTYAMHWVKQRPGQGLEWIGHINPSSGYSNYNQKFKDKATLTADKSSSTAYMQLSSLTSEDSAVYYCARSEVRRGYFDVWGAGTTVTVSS VL: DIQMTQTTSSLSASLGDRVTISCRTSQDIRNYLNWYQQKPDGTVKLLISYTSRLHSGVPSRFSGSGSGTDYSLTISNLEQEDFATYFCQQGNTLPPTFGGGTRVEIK

>  <assignedClass>
Condition not met

$$$$
>  <binder>
anti-CCR8 mAb 2-11 (antibody, V domains shown) VH: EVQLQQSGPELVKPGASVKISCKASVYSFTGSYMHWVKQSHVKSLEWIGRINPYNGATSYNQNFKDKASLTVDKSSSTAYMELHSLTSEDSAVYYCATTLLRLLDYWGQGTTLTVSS VL: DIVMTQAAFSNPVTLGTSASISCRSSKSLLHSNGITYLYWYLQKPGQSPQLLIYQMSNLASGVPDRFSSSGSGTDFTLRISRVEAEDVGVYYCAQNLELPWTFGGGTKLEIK

>  <assignedClass>
Condition met

$$$$
>  <binder>
humanized anti-CCR8 mAb 2-14 (antibody, human IgG1, kappa, V domains shown, Humanized, human IgG1 / kappa) VH: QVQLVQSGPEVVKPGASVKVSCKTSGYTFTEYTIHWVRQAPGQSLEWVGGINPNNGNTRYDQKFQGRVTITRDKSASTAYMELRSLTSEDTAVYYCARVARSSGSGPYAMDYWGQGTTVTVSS VL: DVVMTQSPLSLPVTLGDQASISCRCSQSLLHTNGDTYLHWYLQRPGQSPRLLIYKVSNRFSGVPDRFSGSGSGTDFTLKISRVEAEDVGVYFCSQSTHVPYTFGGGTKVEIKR

>  <assignedClass>
Condition not met

$$$$
